Provenance of the data: patent US20230181564A1

experiment: Kinetic/aqueous solubility in PBS pH 7.4; assay type: physicochemical; details: solubility in Phosphate Buffered Saline pH 7.4; first value of cell
// reported PBS Sol pH7.4 for each item listed

| compound | PBS Sol pH7.4 |
| --- | --- |
| Cc1[nH]c2c(c(=O)c1-c1ccc(Oc3ccc(C(F)(F)F)cc3)cc1)CCCC2 | 0.45 μM |
| Cc1[nH]c2c(c(=O)c1-c1ccc(Oc3ccc(OC(F)(F)F)cc3)cc1)CCC(C(F)(F)F)C2 (stereo not shown) | 0.02 μM |
| Cc1[nH]c2c(c(=O)c1-c1ccc(Oc3cc(Cl)nc(Cl)c3)cc1)CCCC2 | 5.05 μM |
| CCC1CCc2c([nH]c(C)c(-c3ccc(Oc4ccc(OC(F)(F)F)cc4)cc3)c2=O)C1 (stereo not shown) | 0.16 μM |
| Cc1[nH]c2c(c(=O)c1-c1ccc(Oc3ccc(Cl)cc3)cc1)CCCC2 | 16.41 μM |
| Cc1[nH]c2c(c(=O)c1-c1ccc(Oc3ccc(OC(F)(F)F)cc3)cc1)CCCC2 | 7.07 μM |
| Cc1[nH]c2c(c(=O)c1-c1ccc(Oc3ccc(F)cc3)cc1)CCCC2 | 2.38 μM |

* * *

experiment: Kinetic/aqueous solubility in PBS pH 7.4; format: physicochemical; settings: solubility in Phosphate Buffered Saline pH 7.4; first value of cell

| molecule | PBS Sol pH7.4 |
| --- | --- |
| Cc1[nH]c2c(c(=O)c1-c1ccc(Oc3ccc(F)c(Cl)c3)cc1)CCCC2 | 2 μM |
| Cc1[nH]c2c(c(=O)c1-c1ccc(Oc3ccc(OC(F)(F)F)cc3)cc1)CCC(C)C2 (centres unmarked) | 0.03 μM |
| Cc1[nH]c2c(c(=O)c1-c1ccc(Oc3cccc(OC(F)(F)F)c3)cc1)CCCC2 | 0.55 μM |
| Cc1[nH]c2c(c(=O)c1-c1ccc(Oc3cc(Cl)cc(Cl)c3)cc1)CCCC2 | 6.25 μM |
| Cc1[nH]c2ccccc2c(=O)c1-c1ccc(Oc2ccc(OC(F)(F)F)cc2)cc1 [ELQ271, reference compound] | 0.15 μM |
| Cc1[nH]c2ccnn2c(=O)c1-c1ccc(Oc2ccc(OC(F)(F)F)cc2)cc1 | 0.94 μM |
| Cc1[nH]c2c(c(=O)c1-c1ccc(Oc3cccc(Cl)c3)cc1)CCCC2 | 0.33 μM |
| Cc1[nH]c2cnccc2c(=O)c1-c1ccc(Oc2ccc(OC(F)(F)F)cc2)cc1 | 5.12 μM |

* * *

experiment: Metabolic stability in human liver microsomes; format: in vitro ADME; settings: predicted half-life in human liver microsomes; unit in cell; read-out: T1/2 (H)

| compoundSmiles | half-life |
| --- | --- |
| Cc1[nH]c2c(c(=O)c1-c1ccc(Oc3ccc(OC(F)(F)F)cc3)cc1)CCCC2 | > 168 h |

* * *

tested on: P-glycoprotein (MDR1, ABCB1); assay: in vitro; format: in vitro ADME, canine; conditions: dog, MDCK-MDR1
measurementLabel: Papp

| compound | measurementLabel | measuredResult |
| --- | --- | --- |
| Cc1[nH]c2c(c(=O)c1-c1ccc(Oc3ccccc3)cc1)CCCC2 [MJM170] | Papp | > 10 ×10⁻⁶ cm/s |

* * *

// reported T1/2 (M) for each item listed
test: Metabolic stability in mouse liver microsomes; assay type: in vitro ADME; details: predicted half-life in mouse liver microsomes; no unit in table (101 minutes for JAG021)
measurementLabel: T1/2 (M)

| molecule | measuredResult |
| --- | --- |
| Cc1[nH]c2c(c(=O)c1-c1ccc(Oc3ccc(OC(F)(F)F)cc3)cc1)CCC(C)C2 (stereo not drawn) | 111.93 |
| Cc1[nH]c2c(c(=O)c1-c1ccc(Oc3cc(Cl)cc(Cl)c3)cc1)CCCC2 | 28.62 |
| Cc1[nH]c2c(c(=O)c1-c1ccc(Oc3cccc(F)c3)cc1)CCCC2 | 17.38 |
| Cc1[nH]c2c(c(=O)c1-c1ccc(Oc3ccccc3)cc1)CCCC2 | 20.97 |
| Cc1[nH]c2c(c(=O)c1-c1ccc(Oc3cccc(Cl)c3)cc1)CCCC2 | 12.42 |
| Cc1[nH]c2c(c(=O)c1-c1ccc(Oc3ccc(F)cc3)cc1)CCCC2 | 39.17 |
